protein stability index values for the variants below.
B1: POLD4 (parent)
chain: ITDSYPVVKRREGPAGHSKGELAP

Variants of: B1
Assay: protein stability index of a GFP-peptide fusion (GPS, HEK-293T) (PSI 1-6); higher = more stable;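 note: lentivirally expressed fusions sorted by FACS into six bins by GFP to DsRed ratio, PSI derived from sequencing read proportions per bin multiplied by bin number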
Conditions: c terminus: a fixed tail appended
Please give only the number in your answer, with no unit.

V7F    3.45

Exam item: Fill blank: measured protein stability index of the variant P6L is ____.
Marked response: 3.75

Exam item: Same again, this time with S18A
Marked response: 3.01

Exam item: Entry to check: Y5I
Marked response: 4.84

Exam item: Would you mind doing H17L as well?
Marked response: 3.49

Exam item: Then this variant: K19P
Marked response: 4.07
